tested on: PANC-1 complex spheroid growth, percent test/control; assay: Anticancer human tumor PANC-1 cell line growth inhibition [Asc]; details: second compound 0.0949 µM; first compound 0.01 µM; active compounds read low;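 also: spheroids exposed to agents for 7 days; percent viability relative to DMSO vehicle wells taken as 100%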
Readout Name: viability, T/C (%)

Compound	Target Entity	Quantitative Result
CNC(C)C(=O)NC1CN(S(=O)(=O)c2cccc(S(=O)(=O)N3CCC4CCC(C(=O)NC(c5ccccc5)c5ccccc5)N4C(=O)C(NC(=O)C(C)NC)C3)c2)CCC2CCC(C(=O)NC(c3ccccc3)c3ccccc3)N2C1=O (stereo unspecified) + CCN1C(C(=O)NC23CCC(C(=O)O)(CC2)CC3)C(c2cccc(Cl)c2F)C2(C(=O)Nc3cc(Cl)ccc32)C12CCCCC2	PANC-1 complex spheroid growth, percent test/control	96.9
CCN1CCN(Cc2ccc(Nc3ncc(F)c(-c4cc(F)c5nc(C)n(C(C)C)c5c4)n3)nc2)CC1 + CCN1C(C(=O)NC23CCC(C(=O)O)(CC2)CC3)C(c2cccc(Cl)c2F)C2(C(=O)Nc3cc(Cl)ccc32)C12CCCCC2	PANC-1 complex spheroid growth, percent test/control	108
O=C(c1ccc(F)c(F)c1Nc1ccc(I)cc1F)N1CC(O)([C@@H]2CCCCN2)C1 + CCN1C(C(=O)NC23CCC(C(=O)O)(CC2)CC3)C(c2cccc(Cl)c2F)C2(C(=O)Nc3cc(Cl)ccc32)C12CCCCC2	PANC-1 complex spheroid growth, percent test/control	97
COc1c(OCCCN2CCOCC2)ccc2c3n(c(=NC(=O)c4cnc(N)nc4)nc12)CCN3 + CCN1C(C(=O)NC23CCC(C(=O)O)(CC2)CC3)C(c2cccc(Cl)c2F)C2(C(=O)Nc3cc(Cl)ccc32)C12CCCCC2	PANC-1 complex spheroid growth, percent test/control	101
NC1CCC(NC2CC2c2ccccc2)CC1 (stereo unspecified) + CCN1C(C(=O)NC23CCC(C(=O)O)(CC2)CC3)C(c2cccc(Cl)c2F)C2(C(=O)Nc3cc(Cl)ccc32)C12CCCCC2	PANC-1 complex spheroid growth, percent test/control	95.5
Cn1ncnc1[C@H]1c2n[nH]c(=O)c3cc(F)cc(c23)N[C@@H]1c1ccc(F)cc1 + CCN1C(C(=O)NC23CCC(C(=O)O)(CC2)CC3)C(c2cccc(Cl)c2F)C2(C(=O)Nc3cc(Cl)ccc32)C12CCCCC2	PANC-1 complex spheroid growth, percent test/control	94.2

* * *

tested on: PANC-1 complex spheroid growth, percent test/control; assay: Anticancer human tumor PANC-1 cell line growth inhibition [Asc]; conditions: second compound 1 µM; first compound 3 µM; active compounds read low;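 also: spheroids exposed to agents for 7 days; percent viability relative to DMSO vehicle wells taken as 100%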

Molecule	viability, T/C [%]
Cc1nc(N2CCC3(CC2)COC(C)C3N)c(CO)nc1Sc1ccnc(N)c1Cl (centres undefined) + CNC(C)C(=O)NC1CN(S(=O)(=O)c2cccc(S(=O)(=O)N3CCC4CCC(C(=O)NC(c5ccccc5)c5ccccc5)N4C(=O)C(NC(=O)C(C)NC)C3)c2)CCC2CCC(C(=O)NC(c3ccccc3)c3ccccc3)N2C1=O	85.9
CCN1C(C(=O)NC23CCC(C(=O)O)(CC2)CC3)C(c2cccc(Cl)c2F)C2(C(=O)Nc3cc(Cl)ccc32)C12CCCCC2 (centres undefined) + Cc1c(S(C)(=O)=O)c(-c2cc(F)cc(N3CCN(c4ccc(NS(=O)(=O)c5ccc(NC(CCN6CCC(C(=O)OCCCP(=O)(O)O)CC6)CSc6ccccc6)c(S(=O)(=O)C(F)(F)F)c5)cc4)CC3)c2)c(-c2ccc(Cl)cc2)n1C(C)C	115
CCN1C(C(=O)NC23CCC(C(=O)O)(CC2)CC3)C(c2cccc(Cl)c2F)C2(C(=O)Nc3cc(Cl)ccc32)C12CCCCC2 (centres undefined) + CNC(C)C(=O)NC1CN(S(=O)(=O)c2cccc(S(=O)(=O)N3CCC4CCC(C(=O)NC(c5ccccc5)c5ccccc5)N4C(=O)C(NC(=O)C(C)NC)C3)c2)CCC2CCC(C(=O)NC(c3ccccc3)c3ccccc3)N2C1=O	107
Cc1nc(N2CCC3(CC2)COC(C)C3N)c(CO)nc1Sc1ccnc(N)c1Cl (centres undefined) + Cc1c(S(C)(=O)=O)c(-c2cc(F)cc(N3CCN(c4ccc(NS(=O)(=O)c5ccc(NC(CCN6CCC(C(=O)OCCCP(=O)(O)O)CC6)CSc6ccccc6)c(S(=O)(=O)C(F)(F)F)c5)cc4)CC3)c2)c(-c2ccc(Cl)cc2)n1C(C)C	85.5
